target.entity: Recombinant human HDAC1 (Homo sapiens)
Construct: FLAG (C); made in house
Sequence (Q13547 whole entry): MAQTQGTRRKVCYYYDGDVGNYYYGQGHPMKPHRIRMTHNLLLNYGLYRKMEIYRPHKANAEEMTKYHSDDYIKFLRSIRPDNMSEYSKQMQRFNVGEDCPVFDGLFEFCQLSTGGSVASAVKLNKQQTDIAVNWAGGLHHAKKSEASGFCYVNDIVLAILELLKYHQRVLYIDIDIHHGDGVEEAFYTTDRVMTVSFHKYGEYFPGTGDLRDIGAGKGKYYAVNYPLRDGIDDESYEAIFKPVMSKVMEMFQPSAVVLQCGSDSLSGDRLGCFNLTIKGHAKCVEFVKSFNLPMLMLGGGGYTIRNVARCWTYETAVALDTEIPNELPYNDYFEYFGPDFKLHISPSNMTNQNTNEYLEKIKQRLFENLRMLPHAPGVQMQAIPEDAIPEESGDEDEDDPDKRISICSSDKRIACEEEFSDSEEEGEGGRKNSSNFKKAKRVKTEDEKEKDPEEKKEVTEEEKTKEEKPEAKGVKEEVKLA
run.description: Human HDAC enzyme inhibitor Fluor-de-Lys assay, HDAC1
Assay type: biochemical
setup.conditions: recombinant human HDAC1, Fluor-de-Lys assay

- smiles.repr: "CCC(=O)CCCCC[C@H](NC(=O)C1=NOC2(CCN(C)CC2)C1)c1ncc(-c2cc3ccc(N(C)C)nc3cc2OC)o1"
  target.entity: "Recombinant human HDAC1 (Homo sapiens)"
  IC50 [nM]: 1.36
- smiles.repr: "CCC(=O)CCCCC[C@H](NC(=O)[C@H]1CC[C@]2(CC1)OC(=O)c1ncccc12)c1ncc(-c2ccccc2)[nH]1"
  target.entity: "Recombinant human HDAC1 (Homo sapiens)"
  IC50 [nM]: 47.1
- smiles.repr: "CCC(=O)CCCCC[C@H](NC(=O)[C@H]1CC12CCN(C)CC2)c1ncc(-c2ccc(C)nc2OC)[nH]1"
  target.entity: "Recombinant human HDAC1 (Homo sapiens)"
  IC50 [nM]: 3.89
- smiles.repr: "CCC(=O)CCCCC[C@H](NC(=O)[C@H]1CC12CCN(C)CC2)c1ncc(-c2ccc(-c3cccnc3)nc2)[nH]1"
  target.entity: "Recombinant human HDAC1 (Homo sapiens)"
  IC50 [nM]: 4.42
- smiles.repr: "CCC(=O)CCCCC[C@H](NC(=O)[C@H]1CC[C@]2(CC1)OC(=O)c1ccncc12)c1ncc(-c2ccccc2)[nH]1"
  target.entity: "Recombinant human HDAC1 (Homo sapiens)"
  IC50 [nM]: 49.9
- smiles.repr: "CCC(=O)CCCCC[C@H](NCc1ccncc1)c1ncc(-c2cc3ccc(C)nc3cc2OC)[nH]1"
  target.entity: "Recombinant human HDAC1 (Homo sapiens)"
  IC50 [nM]: 367
- smiles.repr: "CCC(=O)CCCCC[C@H](NC(=O)C1CCC2(CC1)CNC2)c1nnc(-c2cc3ccccc3nc2OC)o1"
  target.entity: "Recombinant human HDAC1 (Homo sapiens)"
  IC50 [nM]: 12.2

* * *

System: KARN cells (Jurkat 2C4)
run.description: cells
Type: cell-based
setup.conditions: Homo sapiens, Jurkat, read-out: Karn EC50 (nM) 5% NHS, 5% normal human serum; luciferase induction, 100% = 2 μM SAHA
Each record here notes measured EC50.

- compound: "CCC(=O)CCCCC[C@H](NC(=O)[C@@H]1CC12CCN(CC)CC2)c1ncc(-c2cc3ccccc3[nH]c2=O)[nH]1 [Compound 292]"
  target.entity: "KARN cells (Jurkat 2C4)"
  EC50 [nM]: 1380
- compound: "CCC(=O)CCCCC[C@H](NC(=O)C1NC(=O)CC12CN(C)C2)c1nnc(-c2cc3ccccc3nc2OC)o1 (stereo partly shown) [Compound 309]"
  target.entity: "KARN cells (Jurkat 2C4)"
  EC50 [nM]: 1920
- compound: "CCC(=O)CCCCC[C@H](NC(=O)[C@H]1CC12CCN(CC)CC2)c1ncc(-c2ccc3nn(C4CC4)cc3c2)[nH]1 [Compound 238]"
  target.entity: "KARN cells (Jurkat 2C4)"
  EC50 [nM]: 45
- compound: "CCC(=O)CCCCC[C@H](NC(=O)[C@H]1CC12CCN(C)CC2)c1ncc(-c2ccc(C)nc2OC)[nH]1 [Compound 268]"
  target.entity: "KARN cells (Jurkat 2C4)"
  EC50 [nM]: 330
- compound: "CCC(=O)CCCCC[C@H](NC(=O)C1CC12CCN(CC)CC2)c1nc(-c2ccc(F)cc2)[nH]c1-c1cnc(OC)nc1 (stereo partly shown) [Compound 247]"
  target.entity: "KARN cells (Jurkat 2C4)"
  EC50 [nM]: 10800
- compound: "CCC(=O)CCCCC[C@H](NC(=O)[C@H]1CC12CCN(C)CC2)c1ncc(-c2ccc3ccc(C)nc3c2F)[nH]1 [Compound 354]"
  target.entity: "KARN cells (Jurkat 2C4)"
  EC50 [nM]: 295
- compound: "CCC(=O)CCCCC[C@H](NC(=O)[C@H]1CC12CCN(C)CC2)c1ncc(-c2ccnc(N3CCOCC3)c2F)[nH]1 [Compound 261]"
  target.entity: "KARN cells (Jurkat 2C4)"
  EC50 [nM]: 1500
- compound: "CCC(=O)CCCCC[C@H](NC(=O)[C@@H]1CC12CCN(C)CC2)c1ncc(-c2ccc3ncccc3c2)[nH]1 [Compound 281]"
  target.entity: "KARN cells (Jurkat 2C4)"
  EC50 [nM]: 2170
- compound: "CCC(=O)CCCCC[C@H](NC(=O)C1CC12CCN(CC)CC2)c1nc(-c2ccc(F)cc2)[nH]c1-c1cccc(OC)c1 (stereo partly shown) [Compound 246]"
  target.entity: "KARN cells (Jurkat 2C4)"
  EC50 [nM]: 3770
- compound: "CCC(=O)CCCCC[C@H](NC(=O)[C@H]1C[C@@]12CCN(C)C2)c1ncc(-c2cc3ccccc3nc2OC)[nH]1 [Compound 328]"
  target.entity: "KARN cells (Jurkat 2C4)"
  EC50 [nM]: 322
- compound: "CCC(=O)CCCCC[C@H](NC(=O)C1CC12CCN(CC)CC2)c1nc(-c2ccc(F)cc2)[nH]c1-c1cnn(C)c1 (stereo partly shown) [Compound 248]"
  target.entity: "KARN cells (Jurkat 2C4)"
  EC50 [nM]: 429
- compound: "CCC(=O)CCCCC[C@H](NC(=O)C1(N)CC2(CN(C)C2)C1)c1ncc(-c2cc3ccccc3nc2OC)[nH]1 [Compound 276]"
  target.entity: "KARN cells (Jurkat 2C4)"
  EC50 [nM]: 4780
- compound: "CCC(=O)CCCCC[C@H](NC(=O)[C@@H]1CC12CCN(C)CC2)c1ncc(-c2cc3ccccc3nc2OC)[nH]1 (single isomer, unassigned) [Compound 320]"
  target.entity: "KARN cells (Jurkat 2C4)"
  EC50 [nM]: 1370

* * *

target.entity: Recombinant human HDAC8 (Homo sapiens, UniProt Q9BY41)
Construct: purchased Enzo Life Sciences BML-SE145-0100
Sequence (Q9BY41 whole entry): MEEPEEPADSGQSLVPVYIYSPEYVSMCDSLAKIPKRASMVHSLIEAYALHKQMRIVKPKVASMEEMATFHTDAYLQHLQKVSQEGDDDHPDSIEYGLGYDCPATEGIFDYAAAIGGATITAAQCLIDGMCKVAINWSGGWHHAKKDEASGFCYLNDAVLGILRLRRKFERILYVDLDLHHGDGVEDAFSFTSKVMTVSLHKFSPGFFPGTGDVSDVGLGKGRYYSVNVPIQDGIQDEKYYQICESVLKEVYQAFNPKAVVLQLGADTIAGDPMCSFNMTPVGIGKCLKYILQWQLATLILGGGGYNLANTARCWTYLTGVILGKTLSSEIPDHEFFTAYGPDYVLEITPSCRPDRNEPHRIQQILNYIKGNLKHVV
run.description: Human HDAC enzyme inhibitor Fluor-de-Lys assay, HDAC8
Assay type: biochemical
Classify on IC50 using one = under 3 µM, two = from 3 µM up to 10 µM, three = 10 µM and over

- molecule: "C=CCN1CCC2(CC1)C[C@@H]2C(=O)N[C@@H](CCCCCC(=O)CC)c1ncc(-c2cccc3c2C2CCC3N2CC=C)[nH]1 (some centres unmarked)"
  class: "one"
- molecule: "COc1cc2nc(C)ccc2cc1-c1cnc([C@H](CCCCCC(=O)CC2CCC2)NC(=O)[C@H]2CC23CCN(C)CC3)o1"
  class: "three"
- molecule: "CCC(=O)CCCCC[C@H](NC(=O)C1CC12CCN(C)C(C)(C)C2)c1ncc(-c2ccc3nc(C)ccc3c2)[nH]1 (single isomer, unassigned) [Compound 130]"
  class: "two"
- molecule: "CCC(=O)CCCCC[C@H](NC(=O)[C@H]1CC12CCN(CC)CC2)c1ncc(-c2ccc3nc(C4CC4)ccc3c2)o1"
  class: "three"
- molecule: "CCC(=O)CCCCC[C@H](NC(=O)[C@H]1CC12CCN(C)CC2)c1ncc(-c2ccc3nc(C)ccc3c2)o1"
  class: "three"
- molecule: "CCC(=O)CCCCC[C@H](NC(=O)[C@H]1CC12CCN(CC)CC2)c1ncc(-c2ccc(OC)cc2OC)[nH]1"
  class: "three"
- molecule: "CCC(=O)CCCCC[C@H](NC(=O)C1=NOC2(CCN(C(C)C)CC2)C1)c1ncc(-c2cc3ccccc3nc2OC)[nH]1"
  class: "one"
- molecule: "CCC(=O)CCCCC[C@H](NC(=O)[C@H]1CC12CCN(C)CC2)c1ncc(-c2ccc3cc(C#N)ccc3c2)[nH]1"
  class: "one"
- molecule: "CCC(=O)CCCCC[C@H](NC(=O)[C@H]1CC12CCN(C)CC2)c1[nH]c(-c2ccc(F)cc2)nc1C#N"
  class: "three"
- molecule: "CCC(=O)CCCCC[C@H](NC(=O)[C@H]1CC12CCN(C)CC2)c1nc(Cl)c(-c2cc3ccccc3nc2O)[nH]1"
  class: "two"
- molecule: "CCC(=O)CCCCC[C@H](NC(=O)[C@H]1CC12CCN(CC1CC1)CC2)c1ncc(-c2cc3ccc(=O)n(C)c3cc2OC)o1"
  class: "one"
- molecule: "CCC(=O)CCCCC[C@H](NC(=O)[C@H]1CC12CCN(C)CC2)c1ncc(-c2ccc3nc(CC)sc3c2)[nH]1"
  class: "one"
- molecule: "CCC(=O)CCCCC[C@H](NC(=O)[C@H]1CC12CCN(C)CC2)c1ncc(-c2cc3ccc(Cl)cc3nc2OC)[nH]1"
  class: "one"
- molecule: "CCC(=O)CCCCC[C@H](NC(=O)[C@H]1CC12CCN(CC)CC2)c1ncc(-c2ccc3c(=O)n(CC)ccc3c2)o1"
  class: "three"
- molecule: "CCC(=O)CCCCC[C@H](NC(=O)[C@H]1CC12CCN(CC1CC1)CC2)c1ncc(-c2ccc3nc(C4CC4)ccc3c2)[nH]1"
  class: "two"
- molecule: "CCC(=O)CCCCC[C@H](NC(=O)[C@H]1CC12CCN(CC)CC2)c1ncc(-c2cc3nn(C)cc3cc2OC)o1"
  class: "three"
- molecule: "CCC(=O)CCCCC[C@H](NC(=O)[C@H]1CC12CCN(CC)CC2)c1ncc(-c2ccc(F)cc2OC)[nH]1"
  class: "two"
- molecule: "CCC(=O)CCCCC[C@H](NC(=O)[C@H]1CC12CCN(C)CC2)c1ncc(-c2ccc3nc(C4CC4)oc3c2)[nH]1"
  class: "three"
- molecule: "CCC(=O)CCCCC[C@H](NC(=O)[C@H]1CC12CCN(C)CC2)c1ncc(-c2cc3ccccc3nc2OC)o1 [Compound 77]"
  class: "three"
- molecule: "CCC(=O)CCCCC[C@H](NC(=O)C1CC12CCN(C)C(C)(C)C2)c1ncc(-c2ccc3nc(C)ccc3c2)[nH]1 (single isomer, unassigned) [Compound 131]"
  class: "one"
- molecule: "CCC(=O)CCCCC[C@H](NC(=O)[C@H]1CC12CCN(C)CC2)c1ncc(-c2ccc(C3CC3)nc2)[nH]1"
  class: "three"
- molecule: "CCC(=O)CCCCC[C@H](NC(=O)[C@H]1CC12CCN(C)CC2)c1ncc(-c2ccc3nc(C4CC4)ccc3c2)o1"
  class: "three"
- molecule: "CCC(=O)CCCCC[C@H](NC(=O)[C@H]1CC12CCN(CC)CC2)c1ncc(-c2cc3cccnc3cc2OC)[nH]1"
  class: "two"
